- testedSystem: T1, HCoV-OC43 spike antigens (bead panel) (HCoV-OC43, UniProt P36334 14-1297)
- T1 sequence: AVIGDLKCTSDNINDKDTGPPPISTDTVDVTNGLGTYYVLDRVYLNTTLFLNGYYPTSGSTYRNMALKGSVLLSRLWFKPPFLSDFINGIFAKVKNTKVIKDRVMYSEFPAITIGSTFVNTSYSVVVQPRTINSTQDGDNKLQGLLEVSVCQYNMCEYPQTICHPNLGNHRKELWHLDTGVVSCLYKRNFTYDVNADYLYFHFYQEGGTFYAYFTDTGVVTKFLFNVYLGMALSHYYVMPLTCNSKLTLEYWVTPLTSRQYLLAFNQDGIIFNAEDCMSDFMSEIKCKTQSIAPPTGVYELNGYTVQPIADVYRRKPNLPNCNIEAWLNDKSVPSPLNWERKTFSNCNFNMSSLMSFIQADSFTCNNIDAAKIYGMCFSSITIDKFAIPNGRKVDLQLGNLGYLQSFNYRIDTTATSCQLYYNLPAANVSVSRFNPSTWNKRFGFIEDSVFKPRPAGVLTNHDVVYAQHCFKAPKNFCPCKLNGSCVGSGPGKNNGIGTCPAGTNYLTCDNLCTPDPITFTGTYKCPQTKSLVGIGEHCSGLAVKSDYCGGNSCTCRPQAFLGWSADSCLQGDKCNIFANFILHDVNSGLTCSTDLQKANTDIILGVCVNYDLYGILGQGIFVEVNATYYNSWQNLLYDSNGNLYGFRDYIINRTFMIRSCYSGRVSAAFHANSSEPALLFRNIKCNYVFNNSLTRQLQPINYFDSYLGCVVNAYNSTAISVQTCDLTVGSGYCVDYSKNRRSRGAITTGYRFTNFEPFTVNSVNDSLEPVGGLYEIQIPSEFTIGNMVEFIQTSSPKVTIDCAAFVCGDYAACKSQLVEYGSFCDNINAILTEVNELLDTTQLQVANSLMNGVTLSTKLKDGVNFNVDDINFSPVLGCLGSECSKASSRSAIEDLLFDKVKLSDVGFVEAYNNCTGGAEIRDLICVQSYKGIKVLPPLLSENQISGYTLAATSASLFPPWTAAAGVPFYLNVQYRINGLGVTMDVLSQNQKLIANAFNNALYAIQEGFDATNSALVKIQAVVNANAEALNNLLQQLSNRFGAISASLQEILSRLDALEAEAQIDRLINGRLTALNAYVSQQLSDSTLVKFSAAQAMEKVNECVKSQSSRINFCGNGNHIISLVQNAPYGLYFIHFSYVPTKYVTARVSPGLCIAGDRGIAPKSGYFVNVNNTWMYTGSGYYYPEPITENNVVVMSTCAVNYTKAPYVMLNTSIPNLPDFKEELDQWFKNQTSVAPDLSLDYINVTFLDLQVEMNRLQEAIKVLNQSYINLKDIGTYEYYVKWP
- method: multiplex bead assay

# binder, binding result
data = [
    ("COV_1149 (antibody, V domains shown, human IgG1) VH: QVQLVESGGGVVQPGRSLRLSCAASGFTFSSYGMHWVRQAPGKGLEWVAVISYDGSNKYYADSVKGRFTISRDNSKNTLYLQMNSLRAEDTAVYYCAKTGGGYSYGLGNVWGQGTLVTVSS VL: QSALTQPASVSGSPGQSITISCTGTSSDVGGYNYVSWYQQHPGKAPKLMIYDVSNRPSGVSNRFSGSKSGNTASLTISGLQAEDEADYYCSSYTSSSTLVVFGGGTKLTVLG", "no binding"),
    ("COV_2025 (antibody, V domains shown, human IgG1) VH: QVHLVQSGAEVKKPGASVKVSCKVSGYTLVELSVHWVRQAPAKGLEWIGGFDPEDGETIYAQKFQGRVTMTEDTSTDTAYMELTNLRSEDTAVYYCVTSQPFVSPNWFDPWGQGTLVTVSS VL: QSALTQPASVSGSPGQSITISCTGTSRDVGAYNYVSWYQQHPGKAPKLMIYEVTTRPSGVSNRFSGSKSGNTASLTISGLQAEDEADYYCSSYTGSRTLVFGTGTKVTVL", "no binding"),
    ("COV_2039 (antibody, V domains shown, human IgG1) VH: QVQLVQSGAEVKKPGASVKVSCKVSGYMLIELSMHWVRQAPGKGLEWMGGFDPEDAETIYAQEFQGRVTMTEDTSTDTAYMELSSLRSEDTAVYYCTTGPAVTNRPADYWGPGTLVTVSS VL: QSVLTQPPSVSGAPGQRVTISCTGSSSNIGASYDVHWYQQLPGTAPKLLIYANSNRPSGVPDRFSGSKSGTSASLAITGLQAEDEADYYCQSYDSSLSYSVVFGGGTKLTVL", "no binding"),
]
